Molecular target: full-length human PIKFYVE (N-terminal GST-fusion) (Homo sapiens (Human), UniProt Q9Y2I7, L932S/Q1183K/Q995L/S1033A/S696N/T998S)
Sequence (Q9Y2I7 whole entry S696N/L932S/Q995L/T998S/S1033A/Q1183K, the tested form may be a part): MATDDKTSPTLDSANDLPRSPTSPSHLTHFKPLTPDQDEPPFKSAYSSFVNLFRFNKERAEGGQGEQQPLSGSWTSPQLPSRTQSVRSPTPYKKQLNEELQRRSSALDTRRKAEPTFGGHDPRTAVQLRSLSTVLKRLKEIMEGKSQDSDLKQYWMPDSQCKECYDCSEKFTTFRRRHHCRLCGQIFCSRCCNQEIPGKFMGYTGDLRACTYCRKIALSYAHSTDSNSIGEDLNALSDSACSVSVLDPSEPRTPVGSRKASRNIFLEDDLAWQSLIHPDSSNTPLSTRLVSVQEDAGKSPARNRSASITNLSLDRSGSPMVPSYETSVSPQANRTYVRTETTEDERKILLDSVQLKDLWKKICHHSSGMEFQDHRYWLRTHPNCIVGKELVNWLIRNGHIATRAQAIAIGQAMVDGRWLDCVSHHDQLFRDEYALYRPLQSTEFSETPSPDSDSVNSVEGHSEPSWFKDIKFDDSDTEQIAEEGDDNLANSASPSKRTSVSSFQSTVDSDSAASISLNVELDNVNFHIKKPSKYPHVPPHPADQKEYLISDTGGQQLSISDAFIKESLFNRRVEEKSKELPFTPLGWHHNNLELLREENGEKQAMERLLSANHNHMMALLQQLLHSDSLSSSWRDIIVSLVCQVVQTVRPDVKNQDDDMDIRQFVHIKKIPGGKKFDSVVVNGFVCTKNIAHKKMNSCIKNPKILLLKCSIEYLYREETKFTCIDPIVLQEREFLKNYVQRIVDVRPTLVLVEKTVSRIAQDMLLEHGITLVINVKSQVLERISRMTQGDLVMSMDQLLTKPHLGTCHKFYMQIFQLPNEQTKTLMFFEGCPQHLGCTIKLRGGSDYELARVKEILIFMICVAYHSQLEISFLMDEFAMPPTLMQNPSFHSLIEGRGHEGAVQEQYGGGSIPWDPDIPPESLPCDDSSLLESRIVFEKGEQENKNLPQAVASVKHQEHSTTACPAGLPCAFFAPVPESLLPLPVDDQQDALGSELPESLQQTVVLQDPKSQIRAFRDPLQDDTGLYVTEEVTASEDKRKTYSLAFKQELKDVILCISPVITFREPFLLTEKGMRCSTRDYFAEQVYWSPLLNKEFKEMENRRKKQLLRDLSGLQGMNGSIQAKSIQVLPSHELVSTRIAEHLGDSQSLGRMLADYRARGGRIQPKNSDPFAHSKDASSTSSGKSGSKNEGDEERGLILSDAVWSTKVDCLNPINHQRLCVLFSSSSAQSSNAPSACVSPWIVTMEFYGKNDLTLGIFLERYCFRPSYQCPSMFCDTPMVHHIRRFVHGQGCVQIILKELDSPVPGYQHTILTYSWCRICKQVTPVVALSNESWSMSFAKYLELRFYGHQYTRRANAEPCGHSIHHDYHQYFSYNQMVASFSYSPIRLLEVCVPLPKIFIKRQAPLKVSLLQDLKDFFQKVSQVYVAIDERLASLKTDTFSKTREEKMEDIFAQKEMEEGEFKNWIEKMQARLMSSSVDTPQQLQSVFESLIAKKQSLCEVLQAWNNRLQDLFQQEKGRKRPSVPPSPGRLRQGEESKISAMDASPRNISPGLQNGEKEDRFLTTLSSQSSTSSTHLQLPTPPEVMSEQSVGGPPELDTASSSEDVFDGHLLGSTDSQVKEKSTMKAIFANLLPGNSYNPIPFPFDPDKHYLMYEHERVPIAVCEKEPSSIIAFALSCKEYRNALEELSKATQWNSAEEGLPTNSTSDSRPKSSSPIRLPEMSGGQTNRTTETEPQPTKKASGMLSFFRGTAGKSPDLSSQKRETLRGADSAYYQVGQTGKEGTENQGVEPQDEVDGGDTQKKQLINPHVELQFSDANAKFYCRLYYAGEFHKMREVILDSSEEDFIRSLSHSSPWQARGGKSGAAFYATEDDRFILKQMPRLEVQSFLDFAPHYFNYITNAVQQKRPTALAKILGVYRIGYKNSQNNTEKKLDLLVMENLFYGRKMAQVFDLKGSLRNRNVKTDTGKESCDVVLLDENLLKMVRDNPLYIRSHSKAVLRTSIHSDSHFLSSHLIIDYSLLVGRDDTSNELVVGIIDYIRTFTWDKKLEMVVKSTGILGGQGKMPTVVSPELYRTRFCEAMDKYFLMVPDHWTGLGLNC
Assay: PIKfyve biochemical assay (ADP-Glo Kinase assay, Carna Biosciences)
Settings: ADP-Glo, full-length human GST-PIKFYVE, 10 μM to 3 nM; read-out: hPIKfyve IC50
pIC50: −log10 of the molar value.

| compound | pIC50 |
| --- | --- |
| Cc1cccc(/C=N/Nc2nc(N3CCOCC3)nc3c2CCN3c2cccnc2)c1 | > 8.00 |
| c1ccc(N2CCc3cnc(N4CCOCC4)nc32)cc1 | 6.00 to 7.00 |
| c1cncc(-c2nc(N3CCOCC3)nc3c2CCN3c2cccnc2)c1 | 7.00 to 8.00 |
| CC(C)(C)OC(=O)N1CCC(c2nc(N3CCOCC3)nc3c2CCN3c2cccnc2)CC1 | 6.00 to 7.00 |
| c1cc(-c2nc(N3CCOCC3)nc3c(-c4ccncn4)c[nH]c23)ccn1 | 7.00 to 8.00 |
| c1ccc(-n2cc(N3CCc4c(Oc5cccnc5)nc(N5CCOCC5)nc43)nn2)cc1 | 7.00 to 8.00 |
| c1ccc(N2CCc3c(OCC4COC4)nc(N4CCOCC4)nc32)cc1 | 7.00 to 8.00 |
| c1ccc(N2CCc3c(C4CCOC4)nc(N4CCOCC4)nc32)cc1 (stereo not drawn) | 7.00 to 8.00 |
| c1ccc(N2CCc3c(OCc4cnccn4)nc(N4CCOCC4)nc32)cc1 | 7.00 to 8.00 |

The origin of these recorded values is patent US20250145642A1.
